Measured On: Tyrosine-protein kinase Lyn (Homo sapiens)
Sequence (P07948 whole entry): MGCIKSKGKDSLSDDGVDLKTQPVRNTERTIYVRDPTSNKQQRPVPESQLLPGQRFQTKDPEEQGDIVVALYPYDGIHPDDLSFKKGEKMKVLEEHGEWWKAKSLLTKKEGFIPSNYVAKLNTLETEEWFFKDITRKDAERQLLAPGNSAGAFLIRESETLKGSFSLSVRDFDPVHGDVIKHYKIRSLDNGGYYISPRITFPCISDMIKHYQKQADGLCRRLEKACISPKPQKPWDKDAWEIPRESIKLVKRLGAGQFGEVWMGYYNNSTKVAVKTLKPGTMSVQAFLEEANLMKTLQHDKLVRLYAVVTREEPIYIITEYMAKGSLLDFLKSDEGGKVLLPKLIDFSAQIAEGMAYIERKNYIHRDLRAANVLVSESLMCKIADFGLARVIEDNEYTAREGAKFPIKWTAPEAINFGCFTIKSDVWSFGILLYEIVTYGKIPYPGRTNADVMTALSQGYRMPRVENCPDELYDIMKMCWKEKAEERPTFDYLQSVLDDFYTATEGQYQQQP
pIC50: −log10 of the molar value.

| Compound String | pIC50 |
| --- | --- |
| COc1cc(N2CCC(N3CCN(C)CC3)CC2)ccc1Nc1ncc(Cl)c(Nc2ccccc2P(C)(C)=O)n1 | 6.62 |

* * *

Measured On: UniProt:P49760
Sequence (P49760 whole entry): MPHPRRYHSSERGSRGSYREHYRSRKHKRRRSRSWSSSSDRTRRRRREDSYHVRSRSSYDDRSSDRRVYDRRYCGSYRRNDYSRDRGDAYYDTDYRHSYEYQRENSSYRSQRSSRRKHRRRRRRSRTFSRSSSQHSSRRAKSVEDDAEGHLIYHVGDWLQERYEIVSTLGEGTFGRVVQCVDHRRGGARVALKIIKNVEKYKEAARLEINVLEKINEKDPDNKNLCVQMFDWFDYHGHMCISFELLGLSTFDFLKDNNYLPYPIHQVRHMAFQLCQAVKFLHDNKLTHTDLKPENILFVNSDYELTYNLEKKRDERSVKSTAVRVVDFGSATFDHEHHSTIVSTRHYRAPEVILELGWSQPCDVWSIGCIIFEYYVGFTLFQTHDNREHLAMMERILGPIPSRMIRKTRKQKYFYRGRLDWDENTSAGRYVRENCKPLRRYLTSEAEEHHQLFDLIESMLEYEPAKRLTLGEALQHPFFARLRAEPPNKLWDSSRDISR
pIC50: −log10 of the molar value.
Reported Metric: pIC50

| Compound String | Reported Metric | Value Reported |
| --- | --- | --- |
| COc1cc(N2CCC(N3CCN(C)CC3)CC2)ccc1Nc1ncc(Cl)c(Nc2ccccc2P(C)(C)=O)n1 | pIC50 | 6.62 |

* * *

Measured On: Insulin receptor (Homo sapiens, UniProt P06213)
Sequence (P06213 28-758 limits assumed): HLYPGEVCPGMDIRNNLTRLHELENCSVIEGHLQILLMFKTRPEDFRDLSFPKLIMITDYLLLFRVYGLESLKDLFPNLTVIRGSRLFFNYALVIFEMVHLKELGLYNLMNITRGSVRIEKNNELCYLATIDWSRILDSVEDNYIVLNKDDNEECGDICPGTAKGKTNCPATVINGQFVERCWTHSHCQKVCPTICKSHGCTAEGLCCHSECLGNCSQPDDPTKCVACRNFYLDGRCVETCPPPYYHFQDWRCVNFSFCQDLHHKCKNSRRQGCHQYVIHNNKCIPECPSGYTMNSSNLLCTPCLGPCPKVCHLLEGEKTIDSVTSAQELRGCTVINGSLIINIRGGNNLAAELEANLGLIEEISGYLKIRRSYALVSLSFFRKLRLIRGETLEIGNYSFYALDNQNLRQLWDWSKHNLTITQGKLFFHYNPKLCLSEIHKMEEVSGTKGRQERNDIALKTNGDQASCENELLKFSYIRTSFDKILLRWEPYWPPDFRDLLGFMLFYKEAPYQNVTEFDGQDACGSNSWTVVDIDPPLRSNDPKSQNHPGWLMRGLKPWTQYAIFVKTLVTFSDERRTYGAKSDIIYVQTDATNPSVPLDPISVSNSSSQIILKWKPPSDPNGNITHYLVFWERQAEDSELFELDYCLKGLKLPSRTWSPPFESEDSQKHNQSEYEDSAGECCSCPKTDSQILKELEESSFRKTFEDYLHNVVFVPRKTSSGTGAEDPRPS
Sequence (P06213 763-1382 limits assumed): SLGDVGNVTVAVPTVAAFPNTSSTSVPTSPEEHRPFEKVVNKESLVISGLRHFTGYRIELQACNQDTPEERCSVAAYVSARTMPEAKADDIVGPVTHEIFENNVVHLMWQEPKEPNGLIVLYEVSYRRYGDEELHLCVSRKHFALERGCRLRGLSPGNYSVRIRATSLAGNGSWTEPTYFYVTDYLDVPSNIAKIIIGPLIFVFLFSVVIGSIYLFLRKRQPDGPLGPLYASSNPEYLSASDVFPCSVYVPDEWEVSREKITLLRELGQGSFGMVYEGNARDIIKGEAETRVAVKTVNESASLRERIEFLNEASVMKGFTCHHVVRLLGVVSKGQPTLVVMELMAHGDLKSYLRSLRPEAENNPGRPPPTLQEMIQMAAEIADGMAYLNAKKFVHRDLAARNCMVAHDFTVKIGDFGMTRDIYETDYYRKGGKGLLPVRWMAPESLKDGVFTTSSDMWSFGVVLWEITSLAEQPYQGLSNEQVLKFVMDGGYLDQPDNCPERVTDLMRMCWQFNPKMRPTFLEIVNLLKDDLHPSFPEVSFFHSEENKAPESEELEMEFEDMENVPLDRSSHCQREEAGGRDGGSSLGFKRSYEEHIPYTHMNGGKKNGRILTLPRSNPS
Measurement Notes: Inhibition of human INSR using poly (Glu, Tyr)4:1 as substrate in presence of [gamma33P]-ATP by HotSpot assay

| Compound | IC50 (nM) |
| --- | --- |
| COc1cc(N2CCC(N3CCN(C)CC3)CC2)ccc1Nc1ncc(Cl)c(Nc2ccccc2P(C)(C)=O)n1 [BRIGATINIB] | 160 |
